# assay.name: endothelial E-selectin expression blockers – imaging, HUVEC, immunofluorescence, MLSMR starter and 10KST1 sets, primary screen (AID 487);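 note: signal is fraction of cell area covered by stained E-selectin grains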
# reported.conditions: HUVEC TNFalpha-induced E-selectin immunofluorescence imaging, at 2 µM; stronger effect = higher value
metric.name: inhibition (%)
Supply the numeric figure in %, leaving out any unit text.

Example entries begin here.
Cc1cc(C(=O)N2CCN(C(c3ccccc3)c3ccccc3)CC2)no1 ... -17.5
O=C(C1CCC1)N1CCc2cc(S(=O)(=O)N3CCc4ccccc4C3)ccc21 ... -0.1
COc1cccc(Oc2ccc(N)cn2)c1 ... -126
COC(=O)c1[nH]c2ccccc2c1NS(=O)(=O)c1ccc(OC)cc1OC ... -72
CCC(=O)c1ccc(OCC(=O)N2CCc3cc(OC)c(OC)cc3C2)cc1 ... 25.9

[in] Entry under review: CCCn1c2ccccc2c2nnc(SCC(=O)OCC)nc21 . Reported inhibition?
[out] 14.6

[in] Please answer likewise for CCN(CCCNC(=O)c1cn(CC)c2ccc(S(=O)(=O)N(C)C)cc2c1=O)c1cccc(C)c1
[out] -62.7
